assay: viability loss in pontine glioma line – cell-based, SU-DIPG-XIII, MIPE5.0, CellTiter-Glo, qHTS, dose response (AID 1347064); conditions: CellTiter-Glo ATP luminescence;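 as to AC50: cells exposed to compound for 48 hours before the viability read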
Inconclusive results are not listed. The source made the active and inactive calls. The limit is not given here; nearly all actives have AC50 up to about 23 µM.
Mark one answer only. Choices: active, inactive

>>> print(df.to_string())
                    structure_smiles_string     label
0  CC(C)(C)C(=O)CN1C(=O)[C@H](NC(=O)Nc2cccc(C(=O)O)c2)CN(C2CCCCC2)c2ccccc21  inactive
1  CNc1nccc(-c2cccnc2Oc2cc(C(=O)Nc3cccc(C(F)(F)F)c3)ccc2C)n1    active

In the following, a different compound is considered.
Query: recorded result category for Nc1ccn([C@@H]2C(F)=C(CO)[C@@H](O)[C@H]2O)c(=O)n1 in this test
inactive

Origin of the recorded values: PubChem BioAssay
